Recorded measurements of kon, one per entry
target-system: T1, soluble human ILT2-ECD (human, UniProt Q8NHL6 24-461)
T1 construct: also called LILRB1 extracellular domain
T1 sequence (Q8NHL6 24-461): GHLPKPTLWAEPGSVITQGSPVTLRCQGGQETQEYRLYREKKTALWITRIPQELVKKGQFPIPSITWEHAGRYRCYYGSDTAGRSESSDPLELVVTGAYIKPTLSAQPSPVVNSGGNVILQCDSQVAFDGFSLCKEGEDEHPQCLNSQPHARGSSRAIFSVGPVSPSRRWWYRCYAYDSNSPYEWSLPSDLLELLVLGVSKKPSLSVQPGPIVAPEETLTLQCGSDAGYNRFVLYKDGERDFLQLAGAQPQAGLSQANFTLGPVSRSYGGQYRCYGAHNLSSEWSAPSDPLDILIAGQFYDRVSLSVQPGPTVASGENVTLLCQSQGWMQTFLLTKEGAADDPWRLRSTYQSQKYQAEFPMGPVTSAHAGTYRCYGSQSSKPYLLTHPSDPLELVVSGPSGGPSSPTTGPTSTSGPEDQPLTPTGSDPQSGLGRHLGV
test-protocol: SPR (Biacore) as described in Example 3
Provide only the numeric value, understood in M⁻¹ s⁻¹.

{"binder": "humanized anti-ILT2/ILT4 antibody Hz47H6.v2 (antibody, human IgG1, kappa, N297G, V domains shown) VH: QVQLVQSGAEVKKPGASVKVSCKASGYTFTDYYMNWVRQAPGQRLEWIGDFNPNNAGTTYNQKFEGRVTITVDKSASTAYMELSSLRSEDTAVYYCARGRFYYGSLYSFDYWGQGTLVTVSS VL: DIQMTQSPSSLSASVGDRVTITCRASGNIHNYLAWYQQKPGKAPKLLIYNAKTLADGVPSRFSGSGSGTDFTLTISSLQPEDFATYYCQHFWTSITFGPGTKVDIKR", "kon, M⁻¹ s⁻¹": 230000}
{"binder": "anti-ILT2/ILT4 antibody 47H6 (antibody, V domains shown, Mouse hybridoma antibody) VH: EVQLQQSGPELVKPGASVKISCKASGYTFTDYYMNWVKQSHGKSLEWIGDFNPNNGGTTYNQKFEGKATLTVDKSSNTAYMDLRSLTSEDSAVYYCARGRFYYGSLYSFDYWGQGTTLTVSS VL: DIQMTQSPASLSASVGETVTITCRASGNIHNYLAWYQQKQGKSPHLLVYNAKTLADGVPSRFSGSGSGTQYSLKINNLQPEDFGSYYCQHFWTSITFGAGTKLDLK", "kon, M⁻¹ s⁻¹": 100000}
{"binder": "anti-ILT2/ILT4 antibody 73D1 (antibody, V domains shown, Mouse hybridoma antibody; Shares its light chain variable region with 73C4) VH: AVQLQQSGPELVKPGASVKISCKASGYTFTDYYINWVKQSHGKSLQWIGNVNPNDGGTTYNQKFKGKATLTVDKSSSTAYMELRSLTSEDSAVYYCARREIYFYGTIYYYAMDYWGQGTSVTVSS VL: DIVLTQSPASLAVSLGQRATISCRASESVDYYGNSFMYWYQQKPGRPPNLLIYFASNLESGVPARFSGSGSRTDFTLTIDPVEADDAATYYCQQNNEDPWTFGGGTKLEIK", "kon, M⁻¹ s⁻¹": 150000}

Please find the next binder below.
Exercise: Which measured kon value corresponds to humanized anti-ILT2/ILT4 antibody Hz73D1.v1 (antibody, human IgG1, kappa, N297G, V domains shown, Human IgG1 constant region with G at position 297, human kappa; also called Hz73D1.vi) VH: QVQLVQSGAEVKKPGASVKVSCKASGYTFTDYYINWVRQAPGQGLEWMGNVNPNDGGTTYNQKFKGRVTMTTDTSTSTAYMELRSLRSDDTAVYYCARREIYFYGTIYYYAMDYWGQGTLVTVSS VL: DIQLTQSPSFLSASVGDRVTITCRASESVDYYGNSFMYWYQQKPGKAPKLLIYFASNLESGVPSRFSGSGSGTEFTLTISSLQPEDFATYYCQQNNEDPWTFGGGTKVEIKR ?
Solution: 85000
